Test system: HOP-62 NSCLC
experimental.protocol: NCI-60 one-dose screen, 48 h (100 = growth as untreated, 0 = no growth, -100 = all killed)
condition.context: 10 µM unless noted
About 83,000 compounds went through this panel and 20% of them were active in at least one assay; those are over-represented in the sample as a whole.
Rule: growth below 50% gives 1. Equal to or above 50% gives -1.

Study these solved cases before continuing.
molecule	assigned.label
NC(N)=N/N=C\c1c[nH]c2ccc(Br)cc12	-1
CCn1cnc2c(Nc3cccc(Cl)c3)nc(N[C@@H]3CCCC[C@@H]3N)nc21	1

Challenge: Is it true that growth reported for COc1cc(/C=C/[N+](=O)[O-])c([N+](=O)[O-])cc1OC is less than 50%?
Response given: -1

Challenge: Is it true that growth reported for CC(=O)O[C@H](C[C@H](C(C)C)N(C)C(=O)[C@@H](NC(=O)[C@H]1CCCCN1C)C(C)C)c1nc(C(=O)N[C@@H](Cc2ccccc2)C[C@H](C)C(=O)O)c(C(C)C)s1 is less than 50%?
Response given: 1

====

System: HOP-92 NSCLC
experimental.protocol: NCI-60 one-dose screen, 48 h (100 = growth as untreated, 0 = no growth, -100 = all killed)
condition.context: 10 µM unless noted
The panel holds about 83,000 compounds, 20% with a hit somewhere; the sample as a whole holds those more often.
experimental.readout: growth (%)
Record the value in %, omitting the unit from your answer.

Challenge: Quick one: growth for CC(=O)[C@H]1CC[C@H]2[C@@H]3CC[C@H]4C[C@H](N)CC[C@]4(C)[C@H]3CC[C@]12C ?
Response given: 7.56

Challenge: Quick one: growth for O=C1OCCC1Br (stereo not drawn) ?
Response given: 85.6

Challenge: Quick one: growth for O=P1(NCCCl)OCCCN1CCCl (stereo not drawn) ?
Response given: 97.4

====

Measured growth accompanies every entry in the list below.
Tested on: MOLT-4 leukemia
experimental.protocol: NCI-60 one-dose screen, 48 h (100 = growth as untreated, 0 = no growth, -100 = all killed)
condition.context: 10 µM unless noted
The panel holds about 83,000 compounds, 20% with a hit somewhere; the sample as a whole holds those more often.
Record the value in %, omitting the unit from your answer.

Below are worked cases with known answers.
molecule	readout.number
CCCC(C)C1(CC)C(=O)NC(=O)N(C)C1=O (stereo not given)	101
COc1ccc(/C=C/c2cc(OC)c(OC)c(OC)c2)cc1NC(=O)/C=C/c1ccc(F)cc1	13.5
C/C1=C/C(=O)O[C@@H]2C[C@@H](CC[C@H](C)/C=C\C=C\CC1)O[C@@](O)([C@@H]1CSC(=O)N1CO)C2	33.4

Challenge: Quick one: growth for CC(=O)O[C@H]1CC[C@H]2[C@@H]3CC=C4c5nc(-c6ccccc6)sc5CC[C@]4(C)[C@H]3CC[C@]12C ?
Response given: 46.1

Challenge: Quick one: growth for O=C1CCC2(O)[C@@H]3Cc4ccc(O)c5c4[C@]2(CCN3Cc2ccoc2)C1O5 (stereo not given in full) ?
Response given: 101

Challenge: Quick one: growth for Cc1cc(C)c(CBr)c(C)c1 ?
Response given: 96.3

Challenge: Quick one: growth for CC(=O)O[C@H]1C(=O)[C@@]2(C)[C@H]([C@H](OC(=O)c3ccccc3)[C@]3(O)C[C@H](OC(=O)[C@H](OC(=O)OC[C@H]4COC(C)(C)O4)[C@@H](NC(=O)c4ccccc4)c4ccccc4)C(C)=C1C3(C)C)[C@]1(OC(C)=O)CO[C@@H]1C[C@@H]2O ?
Response given: 11.7

Challenge: Quick one: growth for CC(=O)ONc1ccc([N+](=O)[O-])c(C(F)(F)F)c1 ?
Response given: 96.4

Challenge: Quick one: growth for O=C1C2CCC1C(N1CCCC1)CC2 (stereo not given) ?
Response given: 98

Challenge: Quick one: growth for Fc1cccc(NCOOC2(OOCNc3cccc(F)c3)CCCCC2)c1 ?
Response given: 97.6

Data origin, for the record: PubChem BioAssay (NCI)
